Histone deacetylase 3 (Homo sapiens, UniProt O15379) measurements of pKi, listed per entry.
Sequence (O15379 whole entry): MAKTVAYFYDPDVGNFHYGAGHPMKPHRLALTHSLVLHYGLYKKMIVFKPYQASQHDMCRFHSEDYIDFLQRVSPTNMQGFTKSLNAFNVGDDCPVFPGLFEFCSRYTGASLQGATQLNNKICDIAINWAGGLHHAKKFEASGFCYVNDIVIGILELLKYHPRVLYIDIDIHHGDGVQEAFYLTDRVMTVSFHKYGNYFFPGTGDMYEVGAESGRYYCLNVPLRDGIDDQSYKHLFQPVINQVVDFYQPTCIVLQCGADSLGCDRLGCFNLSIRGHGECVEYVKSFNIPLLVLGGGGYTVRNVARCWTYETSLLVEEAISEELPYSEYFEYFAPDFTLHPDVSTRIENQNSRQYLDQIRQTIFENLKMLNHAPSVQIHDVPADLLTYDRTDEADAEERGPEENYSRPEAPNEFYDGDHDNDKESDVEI
Give bare numbers, as −log10 of the molar value.

> print(dat)
                            chemical.smiles  assay.value
1  CCCCCCc1nc2cc(/C=C/C(=O)NO)ccc2n1CCNC(C)C         7.82
2  CN(C)CC(C)(C)Cn1c(CCc2ccccc2)nc2cc(/C=C/C(=O)NO)ccc21         7.96
3   CCCCc1nc2cc(/C=C/C(=O)NO)ccc2n1CCNC(C)C         7.57
4  CCCCCCc1nc2cc(/C=C/C(=O)NO)ccc2n1CCN(C)C         7.70
5  O=C(/C=C/c1ccc2c(c1)nc(CCc1ccccc1)n2CCN1CCCC1)NO         7.92
6  CN(C)CC(C)(C)Cn1c(CC(C)(C)C)nc2cc(/C=C/C(=O)NO)ccc21         7.70

Now let's try a different one.
Summary for this compound, "CCCCCCc1nc2cc(/C=C/C(=O)NO)ccc2n1CCNCC" : pKi is 7.89
